Below: a set of entries, each annotated with reported pIC50.
- target-under-test: human TLR7 (Homo sapiens)
- Sequence (Q9NYK1 27-1049): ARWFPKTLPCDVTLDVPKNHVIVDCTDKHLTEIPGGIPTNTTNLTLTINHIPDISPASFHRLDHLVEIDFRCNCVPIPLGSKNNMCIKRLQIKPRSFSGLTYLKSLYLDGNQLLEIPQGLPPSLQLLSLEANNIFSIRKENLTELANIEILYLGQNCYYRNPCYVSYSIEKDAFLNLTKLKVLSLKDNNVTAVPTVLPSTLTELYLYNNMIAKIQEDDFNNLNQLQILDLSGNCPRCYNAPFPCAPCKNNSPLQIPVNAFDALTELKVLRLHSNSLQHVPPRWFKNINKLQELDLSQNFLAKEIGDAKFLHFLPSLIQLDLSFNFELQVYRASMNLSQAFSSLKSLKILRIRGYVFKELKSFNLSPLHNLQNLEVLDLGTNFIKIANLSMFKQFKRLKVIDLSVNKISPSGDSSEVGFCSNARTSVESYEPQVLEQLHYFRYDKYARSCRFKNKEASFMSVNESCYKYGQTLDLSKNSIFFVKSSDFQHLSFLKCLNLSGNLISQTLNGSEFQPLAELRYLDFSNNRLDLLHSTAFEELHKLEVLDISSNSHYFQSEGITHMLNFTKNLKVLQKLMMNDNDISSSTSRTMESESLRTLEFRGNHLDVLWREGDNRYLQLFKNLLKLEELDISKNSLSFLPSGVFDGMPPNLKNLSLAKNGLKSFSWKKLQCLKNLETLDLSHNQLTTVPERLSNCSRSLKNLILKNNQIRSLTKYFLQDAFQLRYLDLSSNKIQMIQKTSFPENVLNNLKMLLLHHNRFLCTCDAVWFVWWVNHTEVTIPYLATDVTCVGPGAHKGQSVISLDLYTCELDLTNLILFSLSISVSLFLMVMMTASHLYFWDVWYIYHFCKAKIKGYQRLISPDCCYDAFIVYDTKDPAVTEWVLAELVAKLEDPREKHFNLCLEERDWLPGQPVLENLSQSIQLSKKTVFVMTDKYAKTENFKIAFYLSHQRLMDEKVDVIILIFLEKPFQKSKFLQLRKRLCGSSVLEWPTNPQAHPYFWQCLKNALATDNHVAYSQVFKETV
- assay-notes: TLR7 inhibition reporter assay (HEK-Blue cells, secreted embryonic alkaline phosphatase reporter)
- protocol-conditions: HEK-Blue cells overexpressing human TLR7, stimulated with gardiquimod 7.5 μM; read-out: TLR 7 IC50
pIC50: −log10 of the molar value.
experimental-readout: pIC50

> print(dat)
                                    compound  inequality.sign  reported.result
 1  CC(C)N1CCCC(N2CCC(c3ccc4nc(-c5ccc(S(C)(=O)=O)cc5)n(C)c4c3F)CC2)CC1 (single isomer, unassigned) [Example 113]                <             4.30
 2  Cn1c(-c2ccc(S(C)(=O)=O)cc2)nc2c(F)c(C3CCN(C4CCN(C5COC5)CC4)CC3)ccc21 [Example 186]                <             4.30
 3  Cn1c(-c2ccc(S(C)(=O)=O)cc2)nc2cc(C3CCN(C4CC5CCC(C4)N5C4COC4)CC3)cc(F)c21 (single isomer, unassigned) [Example 214]                <             4.30
 4  Cn1c(-c2ccc(S(C)(=O)=O)cc2)nc2cc(C3CCN(C4CCN(C5CCOCC5)CC4)CC3)c(F)cc21 [Example 245]                <             4.30
 5  Cc1cc(C2CCN(C3CCCN(C4CCC4)CC3)CC2)cc2c1nc(-c1ccc(S(C)(=O)=O)cc1)n2C (single isomer, unassigned) [Example 110]                =             5.92
 6  COCCN1CCC(N2CCC(c3ccc4nc(-c5ccc(S(C)(=O)=O)cc5)n(C)c4c3F)CC2)CC1 [Example 265]                =             5.12
 7  COc1ccc(-c2nc3cc(C4CCN(C5CCN(CC(C)C)CC5)CC4)ccc3n2C)cc1OC [Example 34]                =             4.80
 8  COc1ccc(-c2nc3ccc(C4CCN(C5CCN(C(C)C)CC5)CC4)cc3[nH]2)cc1OC [Example 2]                =             4.80
 9  COc1ccc(-c2nc3c(C)cc(C4CCN(C5CC6(C5)CN(C(C)C)C6)CC4)cc3n2C)cc1OC [Example 16, tris(2,2,2-trifluoroacetate)]                =             5.00
10  Cc1cc(-c2ccc(C3CCN(C)CC3)cc2)cc2c1nc(-c1ccc(S(C)(=O)=O)cc1)n2C [Example 363]                =             5.37
11  Cc1cc(C2CCN(C3CC4CCC(C3)N4C3CCOCC3)CC2)cc2c1nc(-c1ccc(S(C)(=O)=O)cc1)n2C (single isomer, unassigned) [Example 161]                <             4.60
12  Cn1c(-c2ccc(S(C)(=O)=O)cc2)nc2ccc(C3CCN(C4CCCN(C5CCC5)CC4)CC3)c(F)c21 (stereo not drawn) [Example 313]                <             4.30
13  Cc1cc(-c2cc(F)c(CN3CCC(N4CCCC4)CC3)c(F)c2)cc2c1nc(-c1ccc(S(C)(=O)=O)cc1)n2C [Example 391]                =             5.68
14  Cn1c(-c2ccc(S(C)(=O)=O)cc2)nc2ccc(C3CCN(C4CCN(C5COC5)CC4)CC3)c(F)c21 [Example 263]                =             4.92
15  Cn1c(-c2ccc(S(C)(=O)=O)cc2)nc2c(F)c(C3CCN(C4CC5CCC(C4)N5C4COC4)CC3)ccc21 (stereo not drawn) [Example 196]                <             4.30
16  Cn1c(-c2ccc(S(C)(=O)=O)cc2)nc2cc(C3CCN(C4CC5CCC(C4)N5C4COC4)CC3)cc(F)c21 (single isomer, unassigned) [Example 213]                <             4.30
17  Cc1cc(C2CCN(C3CCN(C(C)C)CC3)CC2)cc2c1nc(-c1ccc(S(N)(=O)=O)cc1)n2C [Example 112]                <             4.30
18  COc1ccc(-c2nc3ccc(C4CCN(C5CCN(CC(C)C)CC5)CC4)cc3n2C(C)C)cc1OC [Example 30]                =             5.01
19  COc1ccc(-c2nc3ccc(C4CCN(C5CCN(C6CC6)CC5)CC4)cc3n2CC(F)F)cc1OC [Example 33]                =             5.09
20  Cn1c(-c2ccc(S(C)(=O)=O)cc2)nc2cc(F)c(C3CCN(C4CC5CCC(C4)N5CC4CC4)CC3)cc21 (stereo not drawn) [Example 231]                <             4.30
21  Cn1c(-c2ccc(S(C)(=O)=O)cc2)nc2ccc(C3CCN(C4CC5CCC(C4)N5C4CCC4)CC3)c(F)c21 (single isomer, unassigned) [Example 271]                =             4.50
